Source listed as PubChem BioAssay (NCI).

TGI for assorted molecules
test system: OVCAR-8 ovarian; assay: NCI tumour cell line growth inhibition, 48 h
propertyLabel: TGI

INSERT INTO results (molecule, assaysystem, endpointresult) VALUES
  ('CC1CC(N2CCOCC2)=Nc2ccccc2N1C (stereo unspecified)', 'OVCAR-8 ovarian', '> 100 µM'),
  ('CC1(C)OC[C@@H]([C@@]2(CO[Si](c3ccccc3)(c3ccccc3)C(C)(C)C)CC=CC(=O)O2)O1', 'OVCAR-8 ovarian', '> 100 µM'),
  ('CC1=C(C(=O)Nc2ccccc2)C(c2ccc(N(C)C)cc2)C(C(=O)Nc2ccccc2)=C(C)N1', 'OVCAR-8 ovarian', '> 100 µM'),
  ('CC(=O)O[C@@H](c1nccn1Cc1ccccc1)[C@H]1OC(C)(C)O[C@@H]1[C@H]1COC(C)(C)O1', 'OVCAR-8 ovarian', '> 100 µM'),
  ('CC(=O)O[C@H]1C(=O)[C@@]2(C)C([C@H](OC(=O)c3ccccc3)[C@]3(O)C[C@H](OC(=O)[C@H](O)[C@@H](NC(=O)c4ccccc4)c4ccccc4)C(C)=C1C3(C)C)[C@]1(OC(C)=O)CO[C@@H]1C[C@@H]2O (stereo partly specified)', 'OVCAR-8 ovarian', '> 50 µM'),
  ('Cc1ccc2c(-c3ccnc(Nc4ccc5c(c4)OCCO5)n3)c(-c3ccc(C(F)(F)F)cc3)nn2n1', 'OVCAR-8 ovarian', '> 25 µM'),
  ('COCC([C@@H](O)C(O)C(=O)NCC[C@@H](C)c1nc(/C=C/CC2OC3(C[C@H](O)C2C)OC(C(C[C@H](O)C(C)[C@H](O)C(C)/C=C(C)/C(C)=C/C=C/C(C)=C/C#N)OC)[C@@H](OP(=O)(O)O)C3(C)C)co1)N(C)C (stereo partly specified)', 'OVCAR-8 ovarian', '0.000423 µM'),
  ('O=[N+]([O-])c1ccc(C[P+]2(c3ccccc3)CCCCC2)cc1', 'OVCAR-8 ovarian', '> 100 µM'),
  ('CCCCCCCC(=O)OCC(COC(=O)C(C)(C)C)OC(=O)Cc1ccccc1 (stereo unspecified)', 'OVCAR-8 ovarian', '> 100 µM'),
  ('C[C@]12Cc3cn[nH]c3C(=O)C1CC[C@@H]1C2CC[C@@]2(C)C1CC[C@@H]2O (stereo partly specified)', 'OVCAR-8 ovarian', '> 100 µM'),
  ('CCN1C(=S)N(CC)C2C1NC(=S)N2/N=C/C=C/c1ccccc1OC (stereo unspecified)', 'OVCAR-8 ovarian', '> 41.2 µM'),
  ('O=C1[C@@H]2C(c3c(Cl)cccc3Cl)=NO[C@@H]2C(=O)N1c1ccc(Cc2ccc(N3C(=O)[C@H]4C(c5c(Cl)cccc5Cl)=NO[C@H]4C3=O)cc2)cc1', 'OVCAR-8 ovarian', '> 100 µM'),
  ('O=CC(I)=C(c1ccccc1)c1ccccc1', 'OVCAR-8 ovarian', '53.8 µM'),
  ('COc1nc2c(c(O)c(C)c(=O)n2OC2OCC(OC(C)=O)C(OC(C)=O)C2OC(C)=O)c(=O)n1C (stereo unspecified)', 'OVCAR-8 ovarian', '> 100 µM'),
  ('CCn1cc(C(=O)O)c(=O)c2cc(F)c(N3CCN(S(=O)(=O)c4cccc5ccccc45)CC3)cc21', 'OVCAR-8 ovarian', '> 100 µM'),
  ('CCN(CC)Cc1cc(Nc2nc(NC3CCC(N(C)C)CC3)c3ccccc3n2)ccc1OC (stereo unspecified)', 'OVCAR-8 ovarian', '13.2 µM');
